Target: Vascular endothelial growth factor receptor 2 (Homo sapiens)
Assay: Inhibition of VEGFR2 by HTRF assay in presence of 2 uM ATP
Below, each entry is listed alongside its reported pIC50.
Scale explanation: pIC50 corresponds to minus log10 of a concentration expressed in moles per litre.

Here's what some known entries look like.
- Smiles Repr: "Clc1ccc(-n2cc(-c3ccccc3NCc3ccncc3)nn2)cc1Cl"
  Recorded Measurement: 6.20
- Smiles Repr: "CC(C)(C)c1ccc(-n2cc(-c3ccccc3NCc3ccncc3)nn2)cc1"
  Recorded Measurement: 6.21
- Smiles Repr: "c1ccc(-c2cn(-c3ccc4ccccc4n3)nn2)c(NCc2ccncc2)c1"
  Recorded Measurement: 6.11
- Smiles Repr: "Clc1cccc(-n2cc(-c3ccccc3NCc3ccncc3)nn2)c1"
  Recorded Measurement: 7.06
- Smiles Repr: "O=C(Nc1cccc(C(F)(F)F)c1)c1nn[nH]c1NCc1ccncc1"
  Recorded Measurement: 5.30

Form: compound = `FC(F)(F)c1cccc(-n2cc(-c3ccccc3NCc3ccncc3)nn2)c1` ; pIC50 = 7.29

Data point: `FC(F)(F)Oc1ccc(-n2cc(-c3ccccc3NCc3ccncc3)nn2)cc1` ; pIC50 = 5.91

* * *

Biological target: Epidermal growth factor receptor (Homo sapiens) (UniProt P00533)
Sequence (P00533 whole entry): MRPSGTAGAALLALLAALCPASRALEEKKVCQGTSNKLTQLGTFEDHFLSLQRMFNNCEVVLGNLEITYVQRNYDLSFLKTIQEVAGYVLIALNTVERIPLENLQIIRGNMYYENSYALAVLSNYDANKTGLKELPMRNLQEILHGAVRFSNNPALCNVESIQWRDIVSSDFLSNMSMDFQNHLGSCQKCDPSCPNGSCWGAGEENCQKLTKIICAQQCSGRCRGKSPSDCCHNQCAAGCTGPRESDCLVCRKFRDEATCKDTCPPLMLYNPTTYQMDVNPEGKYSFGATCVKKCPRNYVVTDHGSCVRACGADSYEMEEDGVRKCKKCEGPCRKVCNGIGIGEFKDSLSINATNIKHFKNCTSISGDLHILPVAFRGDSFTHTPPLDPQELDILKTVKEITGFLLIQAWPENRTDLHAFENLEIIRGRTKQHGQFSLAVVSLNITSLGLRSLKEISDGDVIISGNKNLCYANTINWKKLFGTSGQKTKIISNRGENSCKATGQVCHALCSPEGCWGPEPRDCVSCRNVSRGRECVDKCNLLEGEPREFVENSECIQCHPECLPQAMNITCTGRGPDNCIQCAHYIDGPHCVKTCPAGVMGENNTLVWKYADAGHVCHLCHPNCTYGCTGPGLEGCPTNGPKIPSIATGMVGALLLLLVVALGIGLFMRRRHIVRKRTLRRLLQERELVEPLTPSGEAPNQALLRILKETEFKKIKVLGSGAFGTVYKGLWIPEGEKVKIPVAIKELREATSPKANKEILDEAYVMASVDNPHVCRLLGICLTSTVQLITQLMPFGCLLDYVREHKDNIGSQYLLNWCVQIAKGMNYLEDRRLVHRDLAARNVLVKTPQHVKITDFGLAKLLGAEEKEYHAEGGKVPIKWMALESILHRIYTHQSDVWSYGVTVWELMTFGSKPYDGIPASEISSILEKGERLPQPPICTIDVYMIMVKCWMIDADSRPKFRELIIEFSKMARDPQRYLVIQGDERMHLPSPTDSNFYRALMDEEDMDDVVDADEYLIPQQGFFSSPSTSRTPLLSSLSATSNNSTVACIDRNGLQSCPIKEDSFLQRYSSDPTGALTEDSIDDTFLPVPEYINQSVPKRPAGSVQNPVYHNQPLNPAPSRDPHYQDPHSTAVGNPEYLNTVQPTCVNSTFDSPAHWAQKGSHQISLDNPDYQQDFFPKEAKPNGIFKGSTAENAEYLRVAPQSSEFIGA
Experiment: Inhibition of EGFR at 10 uM
Listing: inhibition of selected molecules

# count of solved cases: 3
- Smiles Repr: "FC(F)(F)Oc1ccc(-n2cc(-c3ccccc3NCc3ccncc3)nn2)cc1"
  inhibition: "< 30%"
- Smiles Repr: "c1ccc(-c2cn(-c3ccc4ccccc4n3)nn2)c(NCc2ccncc2)c1"
  inhibition: "< 30%"
- Smiles Repr: "FC(F)(F)Oc1cccc(-n2cc(-c3ccccc3NCc3ccncc3)nn2)c1"
  inhibition: "< 30%"

Lab note: `FC(F)(F)c1ccc(-n2cc(-c3ccccc3NCc3ccncc3)nn2)cc1Cl` gave inhibition of < 30%

// recorded inhibition for `Clc1cccc(-n2cc(-c3ccccc3NCc3cccnc3)nn2)c1` : < 30%

The reported value for `CC(C)(C)c1cccc(-n2cc(-c3ccccc3NCc3ccncc3)nn2)c1` in terms of inhibition is < 30%

For `Fc1ccc(CNc2ccccc2-c2cn(-c3cccc(Cl)c3)nn2)cc1F` the molecule record lists inhibition as < 30%

What the record says about `Clc1cccc(-n2cc(-c3ccccc3NCc3ccnc4ccccc34)nn2)c1` : inhibition is < 30%

Data point: `Clc1cccc(-n2cc(-c3ccccc3NCc3c[nH]cn3)nn2)c1` ; inhibition = < 30%

Recorded result, `CC(C)(C)c1ccc(-n2cc(-c3ccccc3NCc3ccncc3)nn2)cc1` , inhibition: < 30%

* * *

Biological target: Vascular endothelial growth factor receptor 2 (Homo sapiens, UniProt P35968)
Sequence (P35968 whole entry): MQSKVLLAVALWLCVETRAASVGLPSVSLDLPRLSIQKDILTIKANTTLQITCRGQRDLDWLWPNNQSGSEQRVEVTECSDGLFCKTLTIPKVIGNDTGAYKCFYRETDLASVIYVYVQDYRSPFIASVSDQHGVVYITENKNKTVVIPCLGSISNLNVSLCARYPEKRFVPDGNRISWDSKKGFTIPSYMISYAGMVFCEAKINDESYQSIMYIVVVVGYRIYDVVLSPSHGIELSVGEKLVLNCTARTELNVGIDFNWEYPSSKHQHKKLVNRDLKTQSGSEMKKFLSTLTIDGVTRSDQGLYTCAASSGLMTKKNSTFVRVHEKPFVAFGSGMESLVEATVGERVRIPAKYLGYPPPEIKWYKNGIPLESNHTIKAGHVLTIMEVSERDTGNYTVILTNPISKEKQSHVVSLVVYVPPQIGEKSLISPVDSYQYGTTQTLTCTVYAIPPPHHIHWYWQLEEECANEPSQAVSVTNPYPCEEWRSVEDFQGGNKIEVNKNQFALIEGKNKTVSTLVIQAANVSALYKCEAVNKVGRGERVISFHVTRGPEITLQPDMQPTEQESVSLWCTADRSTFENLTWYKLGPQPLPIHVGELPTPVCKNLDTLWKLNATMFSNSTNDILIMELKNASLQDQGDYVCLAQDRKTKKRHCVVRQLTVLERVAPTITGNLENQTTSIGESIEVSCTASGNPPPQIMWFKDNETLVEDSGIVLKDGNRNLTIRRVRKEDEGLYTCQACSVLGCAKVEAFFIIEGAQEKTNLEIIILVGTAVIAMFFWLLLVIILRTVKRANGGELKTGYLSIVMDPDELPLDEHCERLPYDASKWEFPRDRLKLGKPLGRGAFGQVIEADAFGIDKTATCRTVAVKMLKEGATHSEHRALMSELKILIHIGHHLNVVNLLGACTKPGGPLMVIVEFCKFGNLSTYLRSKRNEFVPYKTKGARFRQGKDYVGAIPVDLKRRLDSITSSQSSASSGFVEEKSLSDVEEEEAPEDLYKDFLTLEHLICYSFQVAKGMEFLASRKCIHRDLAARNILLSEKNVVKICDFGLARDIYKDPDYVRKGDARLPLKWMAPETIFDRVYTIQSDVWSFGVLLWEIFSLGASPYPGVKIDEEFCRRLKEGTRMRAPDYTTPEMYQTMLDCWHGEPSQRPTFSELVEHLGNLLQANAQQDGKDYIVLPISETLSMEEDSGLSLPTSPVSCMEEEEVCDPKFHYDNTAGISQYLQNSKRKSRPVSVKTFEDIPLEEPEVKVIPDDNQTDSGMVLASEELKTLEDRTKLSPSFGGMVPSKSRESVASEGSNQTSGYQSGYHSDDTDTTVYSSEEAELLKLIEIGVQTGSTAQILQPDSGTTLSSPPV
Experiment: Inhibition of VEGFR2 by HTRF assay in presence of 2 uM ATP
Binning of IC50 into classes: lower bin = under 200 nM, middle bin = from 200 nM up to 700 nM, upper bin = 700 nM and over

Worked cases, answers included:
- Smiles Repr: "CC(C)c1cccc(-n2cc(-c3ccccc3NCc3ccncc3)nn2)c1"
  Assigned Label: "lower bin"
- Smiles Repr: "FC(F)(F)Oc1cccc(-n2cc(-c3ccccc3NCc3ccncc3)nn2)c1"
  Assigned Label: "lower bin"
- Smiles Repr: "FC(F)(F)c1cccc(-n2cc(-c3ccccc3NCc3ccnc4ccccc34)nn2)c1"
  Assigned Label: "lower bin"

Just checking, what class would you give `Clc1cccc(-n2cc(-c3ccccc3NCc3ccnc4ccccc34)nn2)c1` here? lower bin

Please classify: `FC(F)(F)c1ccc(-n2cc(-c3ccccc3NCc3ccncc3)nn2)cc1` middle bin

Band of `Clc1cccc(-n2cc(-c3ccccc3NCc3c[nH]cn3)nn2)c1` ? upper bin

// bin(item) where item = `Cc1cc(-n2cc(-c3ccccc3NCc3ccncc3)nn2)ccc1C(F)(F)F` upper bin

State the class of the compound shown: `CC(C)(C)c1cccc(-n2cc(-c3ccccc3NCc3ccncc3)nn2)c1` middle bin

* * *

Target: Vascular endothelial growth factor receptor 2 (Homo sapiens)
Experiment: Inhibition of VEGF-induced phosphorylation of VEGFR2 by cell-based ELISA
Result Type: log10(IC50) (log10 of the value in nM)
Recorded IC50 (log10, nM)

Before answering, review these 3 worked examples.
- Smiles Repr: "CC(C)(C)c1cccc(-n2cc(-c3ccccc3NCc3ccncc3)nn2)c1"
  log10(IC50): 2.52
- Smiles Repr: "Cc1cc(-n2cc(-c3ccccc3NCc3ccncc3)nn2)ccc1C(F)(F)F"
  log10(IC50): 3.31
- Smiles Repr: "FC(F)(F)c1cccc(-n2cc(-c3ccccc3NCc3ccncc3)nn2)c1"
  log10(IC50): 1.98

// assay Vascular endothelial growth factor receptor 2 (Homo sapiens), entry `FC(F)(F)c1ccc(-n2cc(-c3ccccc3NCc3ccncc3)nn2)cc1` , log10(IC50) value = 3.28

Test item `FC(F)(F)Oc1ccc(-n2cc(-c3ccccc3NCc3ccncc3)nn2)cc1` ; Vascular endothelial growth factor receptor 2 (Homo sapiens); reported log10(IC50) was 3.49

For `Cc1ccc(-n2cc(-c3ccccc3NCc3ccncc3)nn2)cc1C(F)(F)F` on Vascular endothelial growth factor receptor 2 (Homo sapiens), measured log10(IC50) was 2.26

* * *

Molecular target: Aurora kinase B (Homo sapiens) (UniProt Q96GD4)
Sequence (Q96GD4 whole entry): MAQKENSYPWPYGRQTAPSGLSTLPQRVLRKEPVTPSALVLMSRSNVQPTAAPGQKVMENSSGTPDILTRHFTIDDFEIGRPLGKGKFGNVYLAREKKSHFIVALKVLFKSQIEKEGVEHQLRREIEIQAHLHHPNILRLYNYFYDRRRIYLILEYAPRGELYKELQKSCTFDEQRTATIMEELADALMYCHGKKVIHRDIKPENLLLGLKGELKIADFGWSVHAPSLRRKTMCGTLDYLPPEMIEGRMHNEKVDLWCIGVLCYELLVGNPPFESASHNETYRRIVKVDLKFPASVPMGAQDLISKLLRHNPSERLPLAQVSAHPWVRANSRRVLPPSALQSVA
Assay: Inhibition of Aurora B at 10 uM
# Lookup of reported inhibition keyed by entry

Check out these entries, answers already filled in.
- Smiles Repr: "Fc1ccc(CNc2ccccc2-c2cn(-c3cccc(Cl)c3)nn2)cc1F"
  inhibition: "< 30%"
- Smiles Repr: "Cc1ccc(-n2cc(-c3ccccc3NCc3ccncc3)nn2)cc1C(F)(F)F"
  inhibition: "< 30%"
- Smiles Repr: "FC(F)(F)c1cccc(-n2cc(-c3ccccc3NCc3ccccn3)nn2)c1"
  inhibition: "< 30%"

Lookup result for `CC(C)(C)c1cccc(-n2cc(-c3ccccc3NCc3ccncc3)nn2)c1` ; measured inhibition: < 30%

Lab note: `FC(F)(F)c1cccc(-n2cc(-c3ccccc3NCc3ccncc3)nn2)c1` gave inhibition of < 30%

Short answer for `Clc1cccc(-n2cc(-c3ccccc3NCc3ccnc4ccccc34)nn2)c1` : inhibition was < 30%

* * *

Entries with their measured IC50, system Vascular endothelial growth factor receptor 1 (Homo sapiens, UniProt P17948):

These solved cases illustrate the format of a correct answer.
- Smiles Repr: "FC(F)(F)c1cccc(-n2cc(-c3ccccc3NCc3cccnc3)nn2)c1"
  Result Type: "IC50"
  Recorded Measurement: "> 10 µM"
- Smiles Repr: "O=C(Nc1ccc(Cl)cc1)c1nn[nH]c1NCc1ccncc1"
  Result Type: "IC50"
  Recorded Measurement: "> 10 µM"
- Smiles Repr: "Clc1cccc(-n2cc(-c3ccccc3NCc3cccnc3)nn2)c1"
  Result Type: "IC50"
  Recorded Measurement: "> 10 µM"

Entry `c1ccc(-c2cn(-c3ccc4ccccc4n3)nn2)c(NCc2ccncc2)c1` under Vascular endothelial growth factor receptor 1 (Homo sapiens, UniProt P17948) had IC50 of 0.64 µM

Known value: Vascular endothelial growth factor receptor 1 (Homo sapiens, UniProt P17948) IC50 of the compound `Clc1cccc(-n2cc(-c3ccccc3NCc3c[nH]cn3)nn2)c1` equals > 10 µM

Entry `FC(F)(F)c1cccc(-n2cc(-c3ccccc3NCc3ccc4c(c3)OCO4)nn2)c1` , tested on Vascular endothelial growth factor receptor 1 (Homo sapiens, UniProt P17948), has a reported IC50 of > 10 µM

* * *

Target: Vascular endothelial growth factor receptor 2 (Homo sapiens)
Test: Inhibition of VEGFR2 by HTRF assay in presence of 2 uM ATP
Result Type: IC50

Examples from the recorded data:
- Smiles Repr: "FC(F)(F)c1cccc(-n2cc(-c3ccccc3NCc3ccc4c(c3)OCO4)nn2)c1"
  Recorded Measurement: "> 10 µM"
- Smiles Repr: "O=C(Nc1ccc(C(F)(F)F)cc1)c1[nH]nnc1NCc1ccncc1"
  Recorded Measurement: "> 10 µM"

Please look at the following compound next.
Lookup result for `O=C(Nc1ccc(Cl)cc1)c1nn[nH]c1NCc1ccncc1` ; measured IC50: > 10 µM

* * *

Biological target: Vascular endothelial growth factor receptor 2 (Homo sapiens, UniProt P35968)
Assay: Inhibition of VEGFR2 by HTRF assay in presence of 2 uM ATP
Result Type: log10(IC50) (log10 of the value in µM)
# values: log10(IC50), units µM

The cases that follow already have their log10(IC50) on record.
- Smiles Repr: "c1ccc(-c2cn(-c3ccc4[nH]ncc4c3)nn2)c(NCc2ccncc2)c1"
  Assay Target: "Vascular endothelial growth factor receptor 2 (Homo sapiens, UniProt P35968)"
  log10(IC50): -0.17
- Smiles Repr: "FC(F)(F)c1ccc(-n2cc(-c3ccccc3NCc3ccncc3)nn2)cc1Cl"
  Assay Target: "Vascular endothelial growth factor receptor 2 (Homo sapiens, UniProt P35968)"
  log10(IC50): -0.03
- Smiles Repr: "Clc1ccc(-n2cc(-c3ccccc3NCc3ccncc3)nn2)cc1"
  Assay Target: "Vascular endothelial growth factor receptor 2 (Homo sapiens, UniProt P35968)"
  log10(IC50): -0.41
- Smiles Repr: "O=C(Nc1cccc(Cl)c1)c1nn[nH]c1NCc1ccncc1"
  Assay Target: "Vascular endothelial growth factor receptor 2 (Homo sapiens, UniProt P35968)"
  log10(IC50): 0.70
- Smiles Repr: "Clc1cccc(-n2cc(-c3ccccc3NCc3cccnc3)nn2)c1"
  Assay Target: "Vascular endothelial growth factor receptor 2 (Homo sapiens, UniProt P35968)"
  log10(IC50): 0.63

Recorded result, `FC(F)(F)c1cc(-n2cc(-c3ccccc3NCc3ccncc3)nn2)ccc1Cl` , log10(IC50): -0.36

Lab note: `Cc1ccc(-n2cc(-c3ccccc3NCc3ccncc3)nn2)cc1C(F)(F)F` gave log10(IC50) of -0.85
